The values you see were collected from ChEMBL document CHEMBL3526091.

# assay.comment: AUC (0 to infinity) in cancer patient at 40 mg for 60 mins treated 1/1 cycle/day
# Format: ADME, organism-based
# Parameters: dose 40 mg, time infinity, dosed compound name LY2090314
# experimental.parameters: human, plasma
measurement.name: AUC(0-inf) (ng·h/mL)
Only the number, expressed in ng·h/mL, is required.

Prompt: Tell me measured AUC(0-inf) for "O=C1NC(=O)C(c2cnc3ccccn23)=C1c1cn2c3c(cc(F)cc13)CN(C(=O)N1CCCCC1)CC2" please.
Response: 976

----------
# assay.comment: Cmax in cancer patient at 10 mg for 60 mins treated 2/1 cycle/day
# Format: ADME, organism-based
# Design: dose 10 mg, dosed compound name LY2090314
# experimental.parameters: human, in vivo
measurement.name: Cmax (µg/mL)
I only need the number, in µg/mL, no unit after it.

Prompt: Output Cmax of O=C1NC(=O)C(c2cnc3ccccn23)=C1c1cn2c3c(cc(F)cc13)CN(C(=O)N1CCCCC1)CC2 [LY-2090314]
Response: 0.106

----------
# assay.comment: Cmax in beagle dog at 5 mg/kg, iv administered for 30 mins
# Assay type: ADME, organism-based, Canis lupus familiaris
# Design: dose 5 mg/kg, dosed compound name [14C]LY2090314, route intravenous
# experimental.parameters: in vivo
measurement.name: Cmax (ng/mL)
Answer format: numeric, ng/mL implied, no suffix.

Prompt: Note Cmax for the compound shown: "O=C1NC(=O)C(c2cnc3ccccn23)=C1c1cn2c3c(cc(F)cc13)CN(C(=O)N1CCCCC1)CC2"
Response: 5090

----------
# assay.comment: AUC (0 to infinity) in Sprague-Dawley rat at 5 mg/kg, iv administered for 30 mins
# Type: ADME, organism-based
# Parameters: time infinity, dose 5 mg/kg, dosed compound name [14C]LY2090314, route intravenous
# experimental.parameters: plasma
measurement.name: AUC(0-inf) (ng·h/mL)
Just the number in ng·h/mL, nothing appended.

Prompt: Identify measured AUC(0-inf) corresponding to "O=C1NC(=O)C(c2cnc3ccccn23)=C1c1cn2c3c(cc(F)cc13)CN(C(=O)N1CCCCC1)CC2"
Response: 1260

----------
# assay.comment: Clearance in cancer patient at 60 mg for 60 mins treated 1/8 cycle/day
# Assay type: ADME, organism-based
# Set-up: dosed compound name LY2090314
# experimental.parameters: human, in vivo
measurement.name: clearance
Give the number first and the unit second.

Prompt: Quickly give me recorded clearance for "O=C1NC(=O)C(c2cnc3ccccn23)=C1c1cn2c3c(cc(F)cc13)CN(C(=O)N1CCCCC1)CC2"
Response: 633 mL/min
